Experiment: Cytotoxicity against human HeLa cells infected with Coxsackievirus B1 after 42 hrs by carbol fuchsin staining-based assay
Type: cell-based
Each entry below carries its recorded MCC at 42 h.

| MOLECULE | MEASUREMENT QUALIFIER | MCC at 42 h / µg/mL |
| --- | --- | --- |
| CNC1=NC(=O)C(C(C)c2cn(C(=O)OC(C)CN(C)C)c3ccccc23)S1 (racemic) | = | 100 |
| OC(c1ccccc1)c1nc2ccccc2[nH]1 (stereo not drawn) | > | 100 |
| CNC1=NC(=O)C(C(C)c2cn(C(=O)OCC(C)(C)N3CCOCC3)c3ccccc23)S1 (racemic) | = | 100 |
| CNC1=NC(=O)C(C(C)c2cn(C(=O)CCCC(=O)O)c3ccccc23)S1 (racemic) | > | 100 |
| CNC1=NC(=O)C(C(C)c2cn(C(=O)OCC(C)(C)N(C)C)c3ccccc23)S1 (racemic) | = | 100 |
| CNC1=NC(=O)C(C(C)c2cn(C(=O)OC(C)(C)CN(C)C)c3ccccc23)S1 (racemic) | = | 30 |
| CNC1=NC(=O)C(C(C)c2c[nH]c3ccccc23)S1 (racemic) | = | 30 |
| CNC1=NC(=O)C(C(C)c2cn(C(=O)CCC(=O)O)c3ccccc23)S1 (racemic) | > | 100 |

====

Experiment: Cytotoxicity against MDCK cells infected with Influenza A virus Port Chalmers/1/73 (H3N2) after 3 days by carbol fuchsin staining-based assay
Assay type: cell-based, Canis lupus familiaris
Conditions: dog
ENDPOINT: MCC at 72 h

| MOLECULE | ENDPOINT VALUE |
| --- | --- |
| CNC1=NC(=O)C(C(C)c2c[nH]c3ccccc23)S1 (racemic) | 3 µg/mL |
| CNC1=NC(=O)C(C(C)c2cn(C(=O)OCC(C)(C)N3CCOCC3)c3ccccc23)S1 (racemic) | 30 µg/mL |
| CNC1=NC(=O)C(C(C)c2cn(C(=O)OCC(C)(C)N(C)C)c3ccccc23)S1 (racemic) | 3 µg/mL |
| CNC1=NC(=O)C(C(C)c2cn(C(=O)CCC(=O)O)c3ccccc23)S1 (racemic) | > 100 µg/mL |
| CNC1=NC(=O)C(C(C)c2cn(C(=O)CCCC(=O)O)c3ccccc23)S1 (racemic) | 100 µg/mL |
| CNC1=NC(=O)C(C(C)c2cn(C(=O)OC(C)(C)CN(C)C)c3ccccc23)S1 (racemic) | 3 µg/mL |
| CNC1=NC(=O)C(C(C)c2cn(C(=O)OC(C)CN(C)C)c3ccccc23)S1 (racemic) | 10 µg/mL |
| NC(=O)c1ncn([C@@H]2O[C@H](CO)[C@@H](O)[C@H]2O)n1 | > 100 µg/mL |

====

Experiment: Solubility in water
Assay type: physicochemical
Details: buffer

| MOLECULE | solubility |
| --- | --- |
| CNC1=NC(=O)C(C(C)c2cn(C(=O)CCCC(=O)[O-])c3ccccc23)S1.[Na+] (racemic) | soluble |
| CNC1=NC(=O)C(C(C)c2cn(C(=O)OCC(C)(C)N3CCOCC3)c3ccccc23)S1.Cl (racemic) | soluble |
| CNC1=NC(=O)C(C(C)c2cn(C(=O)c3ccccc3C(=O)[O-])c3ccccc23)S1.[Na+] (racemic) | soluble |
| CNC1=NC(=O)C(C(C)c2cn(C(=O)OC(C)(C)CN(C)C)c3ccccc23)S1.Cl (racemic) | soluble |
| CNC1=NC(=O)C(C(C)c2cn(C(=O)CCC(=O)[O-])c3ccccc23)S1.[Na+] (racemic) | soluble |
| CNC1=NC(=O)C(C(C)c2cn(C(=O)OCC(C)(C)N(C)C)c3ccccc23)S1.Cl (racemic) | soluble |
| CNC1=NC(=O)C(C(C)c2cn(C(=O)OC(C)CN(C)C)c3ccccc23)S1.Cl (racemic) | soluble |
